Tested on: HepG2
experimentSummary: Lipid lowering activity in human HepG2 cells assessed as decrease in total cholesterol level at 10 uM treated 12 hrs post oleic acid addition measured 6 hrs post dose
Type: functional, cell-based
The source made the active and inactive calls. The rule behind the calls is not given here.
endpoint: Activity

Here CC(=O)O[C@@H](c1ccccc1)c1cc(=O)c(C(=O)NC(=O)CC(C)C)cn1CCO was tested on HepG2, and its Activity came to Active

Summary: COC(=O)c1c[nH]c([C@@H](O)c2ccccc2)cc1=O , HepG2, Activity = Active

Given the compound CC(=O)O[C@@H](c1ccccc1)c1cc(=O)c(C(N)=O)cn1CCO and test system HepG2, the measured Activity is Active

The reported Activity value, HepG2, for NC(=O)c1c[nH]c([C@@H](O)c2ccccc2)cc1=O reads Active
